Several reports have described Ki for Prothrombin (Homo sapiens, UniProt P00734); a selection of those results is presented here.

Consider the following illustrative entries.
# Molecule, Measured On, Assay Endpoint, Reported Result
data = [
    ("N=C(N)c1cccc(C(=O)N[C@@H](C(=O)N2CCC(Cc3ccccc3)CC2)c2ccccc2)c1", "Prothrombin (Homo sapiens, UniProt P00734)", "Ki", "1.35 µM"),
    ("O=C(NCc1ccccc1)N1CCN(C(=O)O[C@H]2CCC[C@@H](OC(=O)N3CCN(C(=O)NCc4ccccc4)CC3)CCC2)CC1", "Prothrombin (Homo sapiens, UniProt P00734)", "Ki", "14 µM"),
    ("Cc1cc2oc(Cc3cccc(Cl)c3)nc2c(NCCC2CCCCN2)n1 (stereo not drawn)", "Prothrombin (Homo sapiens, UniProt P00734)", "Ki", "0.0031 µM"),
    ("N=C(N)NCCC[C@H](NC(=O)[C@@H]1CC[C@@H]2CC[C@@](N)(Cc3ccccc3)C(=O)N21)C(=O)c1nc2ccccc2s1", "Prothrombin (Homo sapiens, UniProt P00734)", "Ki", "0.00085 µM"),
    ("COC(=N)NS(=O)(=O)c1cccc([N+](=O)[O-])c1", "Prothrombin (Homo sapiens, UniProt P00734)", "Ki", "0.213 µM"),
    ("N=C(N)c1cccc(CNC(=O)c2c(Br)c3ccccc3n2Cc2cccc(C(=N)N)c2)c1", "Prothrombin (Homo sapiens, UniProt P00734)", "Ki", "3.29 µM"),
    ("Cc1ccc(N(C)C)cc1Oc1nc(Oc2cccc(C(=N)N)c2)c(F)c(C)c1F", "Prothrombin (Homo sapiens, UniProt P00734)", "Ki", "> 5 µM"),
    ("CC(NC(=O)CNC(=O)Nc1ccc(C(=N)N)cc1)c1ccc(NC(=O)C2CCNCC2)cc1 (stereo not drawn)", "Prothrombin (Homo sapiens, UniProt P00734)", "Ki", "68.5 µM"),
]

Request: Query Ki on Prothrombin (Homo sapiens, UniProt P00734) for CC(=O)OCCC1CCN(C(=O)C(Cc2nc3ccccc3[nH]2)NS(=O)(=O)c2cccc3c2NCC(C)(C)C3)CC1 (stereo not drawn)
Response: 0.452 µM

Request: Return Ki measured with Prothrombin (Homo sapiens, UniProt P00734) given this molecule: Cc1cc(CNC(=O)c2cc3c(O)cccc3n2Cc2cccc(C(=N)N)c2)cc(C(F)(F)F)c1
Response: 0.48 µM

----------
Compiled literature Ki, tested on Prothrombin (Homo sapiens).
Record the value in nM, omitting the unit from your answer.

# Molecule, Measured On, Unit Descriptor, Ki
measured = [
    ("N=C(N)NNS(=O)(=O)c1cccc(N)c1", "Prothrombin (Homo sapiens)", "nM", 88),
    ("CC[C@@H](C)[C@@H](N)C(=O)N1CCC[C@H]1C(=O)NCc1ccc(C(=N)N)cc1", "Prothrombin (Homo sapiens)", "nM", 20),
    ("O=C1Cn2c(Cl)cnc(c2=O)N[C@@H](Cc2ccccc2)CNCCCNCCc2ccc(Cl)cc2CN1", "Prothrombin (Homo sapiens)", "nM", 0.09),
]

Request: Item COc1cc([C@@H]2Nc3ccc(C(=N)N)cc3[C@H]3c4ccccc4C[C@H]32)c(-c2cccc(C(=O)O)c2)cc1O (racemic) with Prothrombin (Homo sapiens) - Ki?
Response: 330

----------
Record: compiled pKi on Prothrombin (Homo sapiens, UniProt P00734) from multiple reports.
Entry type: numeric. Quantity: pKi, the -log10 of concentration in molar units.

# example entries with known answers
# Compound, pKi
rows = [
    ("N=C(N)Nc1ccc(CC(=O)N2CCN(C(=O)O[C@H]3CCC[C@@H](OC(=O)N4CCN(C(=O)Cc5ccc(NC(=N)N)cc5)CC4)CCC3)CC2)cc1", 3.59),
    ("CCOC(=O)CN(Cc1ccccc1)C(=O)[C@H](CC(=O)NC[C@@H]1CCCN(C(=N)N)C1)NS(=O)(=O)c1ccc2ccccc2c1", 7.15),
    ("Cc1nc2c(C(F)(F)F)nn(-c3ccc4onc(N)c4c3)c2c(=O)n1-c1ccc(-c2ccccc2CN(C)C)cc1", 6.89),
]

# context switch: different compound, same pKi
Request: Please tell me: pKi of CC(C)(C)OC(=O)N[C@H](Cc1ccccc1)C(=O)N1CCC[C@H]1C(=O)NC(CCCN=C(N)N)B(O)O (some centres undefined) , system Prothrombin (Homo sapiens, UniProt P00734)?
Response: 11.40

----------
Here is a set of compounds with reported pKi for Prothrombin (Homo sapiens), compiled from the literature.
# reply with the number alone; pKi is -log10 of concentration in mol/L

# Smiles Notation, pKi
measured = [
    ("N=C(N)N1CCC(COc2cccc(OS(=O)(=O)c3ccccc3Cl)c2)CC1", 6.72),
    ("CC1(C)[C@@H]2C[C@H]3OB([C@H](CCCCN)NC(=O)[C@@H]4CCCN4C(=O)c4cccc(Cc5ccc(C(F)(F)F)cc5)c4)O[C@@]3(C)[C@H]1C2", 9.66),
    ("CN(C(=O)[C@H](CC#Cc1cnc(N)s1)NS(=O)(=O)c1ccc2ccccc2c1)C1CCCC1", 5.35),
]

Request: Could you share which pKi value was measured for N=C(N)c1cccc(N2CCCCN(C3CCN(S(=O)(=O)Cc4ccccn4)CC3)C2=O)c1.O=C(O)C(F)(F)F.O=C(O)C(F)(F)F ?
Response: 6.30

----------
# Ki against Prothrombin (Homo sapiens), merged from multiple literature sources

Example entries begin here.
# Smiles Notation, Measured On, Assay Endpoint, Reported Result
rows = [
    ("NCCCCCNC(=O)N1CCN(C(=O)O[C@H]2CCC[C@@H](OC(=O)N3CCN(C(=O)NCCCCCN)CC3)CCC2)CC1", "Prothrombin (Homo sapiens)", "Ki", "> 1000 µM"),
    ("Cc1ccc(NS(=O)(=O)c2ccc3c(c2)CCO3)c(=O)n1CC(=O)NCc1ccc2c[nH]nc2c1", "Prothrombin (Homo sapiens)", "Ki", "1.32 µM"),
    ("CCC[C@@H]1Cc2cc(C)n(CC(=O)NCc3ccc(N)nc3C)c(=O)c2NC1=O", "Prothrombin (Homo sapiens)", "Ki", "0.00033 µM"),
    ("CS(=O)(=O)c1ccccc1-c1ccc(NC(=O)c2cc(C(F)(F)F)nn2-c2ccccc2CN)cc1", "Prothrombin (Homo sapiens)", "Ki", "1.4 µM"),
]

Next compound, please.
Request: Record CN(c1ccccc1)S(=O)(=O)c1cc(Cl)cc(OCCNc2ccncc2)c1 : what is its Ki with Prothrombin (Homo sapiens)?
Response: 0.04 µM

----------
Target or system Prothrombin (Homo sapiens); metric pKi; compiled from varied reports.
pKi: −log10 of the molar value.
I would appreciate it if you labelled entries class 1 when pKi is 6 or higher, otherwise class 0.

# Compound, Label Value
measured = [
    ("N=C(N)c1ccc(OC[C@H]2COc3cc(N(Cc4ccccc4)C(=O)C(=O)O)ccc3O2)cc1", "class 0"),
    ("COC(=O)N[C@@H](C(=O)N1CCC[C@H]1C(=O)NCC#Cc1c[nH]cn1)C(c1ccccc1)c1ccccc1", "class 1"),
    ("Cc1cc(C(=O)Nc2ccc(-c3ccccc3S(N)(=O)=O)cc2)n(-c2cccc(B(O)O)c2)n1", "class 0"),
    ("CN(C1CCCCC1)[C@@H](CC(=O)O)C(=O)N1CCCC[C@H]1CCOC1CCN(C(=N)N)CC1", "class 1"),
    ("Nc1noc2ccc(-n3nc(C(F)(F)F)cc3C(=O)Nc3ccc(N4CCOCC4)cc3F)cc12", "class 0"),
]

Request: Record CC(=O)N[C@H](Cc1ccccc1)C(=O)N1CCC[C@H]1C(=O)N[C@@H](CCCn1ccnc1)B1O[C@@H]2CC3CC(C3(C)C)[C@]2(C)O1 (some centres undefined) ; criterion: pKi no lower than 6. Met?
Response: class 1

Request: Please tell me: is the compound CCCN(Cc1ccncc1)C(=O)c1cc(C)cc(OCCCONC(=N)N)c1 at or over 6 in terms of pKi?
Response: class 1

Request: Identify whether the reported pKi of the following compound is 6 or greater: N=C(N)c1ccc2ncn(CC(=O)Nc3ccc(-c4ccccc4)cc3)c2c1
Response: class 0

----------
Reported Ki against Prothrombin (Homo sapiens), gathered from multiple publications, appears below.
Kindly apply the following: t if Ki is less than 1 µM, f in every other case.

Look over these answered cases.
# Compound, Label Value
measured = [
    ("N=C(N)c1ccc(O)c(CN2CC[C@H](NS(=O)(=O)c3cc4c(Cl)nccc4s3)C2=O)c1", "f"),
    ("Nc1noc2ccc(-n3nc(C(F)(F)F)c4c3C(=O)N(c3ccc(-c5ccccc5CN5CCNCC5)cc3)CC4)cc12", "t"),
    ("Nc1ncc(C(=O)NC[C@H]2CN(c3ccc(N4CCCC(C(=O)O)C4)cc3)C(=O)O2)s1.O=C(O)C(F)(F)F (stereo not given in full)", "f"),
    ("COc1cc(C(=N)N)cc(Oc2nc(Oc3cccc(C(=O)N(C)C)c3)c(F)c(C)c2F)c1OC", "f"),
    ("Nc1[nH]ccc2nc(CN3CCN(S(=O)(=O)c4cc5ccc(Cl)cc5s4)CC3=O)cc1-2", "f"),
    ("O=C(Cn1c(Cl)cnc(NCC(F)(F)c2cccc[n+]2[O-])c1=O)NCc1c(F)cccc1C(F)(F)F", "t"),
    ("CCOc1cc(OC(C)C)c(F)c(C(Nc2ccc(C(=N)N)cc2)c2nc(-c3ccccc3C(=O)O)c[nH]2)c1 (stereo not given)", "t"),
    ("O=C(Nc1ccc(Cl)cc1)c1cc(Cl)ccc1NC(=O)c1scc(CNCCOCCO)c1Cl", "f"),
    ("Cc1ccc(S(=O)(=O)NC(=O)N[C@@H](Cc2ccccc2)C(=O)N2CCCC2C(=O)Nc2ccc(S(=O)(=O)N=C(N)N)cc2)cc1 (stereo not given in full)", "t"),
    ("COC(=O)C(C)CN(c1ccc2c(c1)nc(C)n2Cc1ccc2ccc(C(=N)N)cc2c1)C1CCN(C(C)=N)CC1 (stereo not given)", "f"),
]

Request: Quick check: does NCCC(=O)Nc1cccc(S(=O)(=O)N[C@@H](Cc2cccc(CN)c2)C(=O)N2CCC(CCN)CC2)c1 have Ki under 1 µM?
Response: f

Request: Ki under 1 µM? Item: CC(C)Oc1c(O)c(C(=O)Nc2ccc(NC(=N)N)cc2)cc2ccccc12
Response: f
